biological target: human V1b receptors (Homo sapiens, UniProt P47901); construct: expressed in transfected cells; assay: Vasopressin V1b receptor binding assay; settings: Table 1; human vasopressin V1b receptor affinity; read-out: V1b Ki
Sequence (P47901 whole entry): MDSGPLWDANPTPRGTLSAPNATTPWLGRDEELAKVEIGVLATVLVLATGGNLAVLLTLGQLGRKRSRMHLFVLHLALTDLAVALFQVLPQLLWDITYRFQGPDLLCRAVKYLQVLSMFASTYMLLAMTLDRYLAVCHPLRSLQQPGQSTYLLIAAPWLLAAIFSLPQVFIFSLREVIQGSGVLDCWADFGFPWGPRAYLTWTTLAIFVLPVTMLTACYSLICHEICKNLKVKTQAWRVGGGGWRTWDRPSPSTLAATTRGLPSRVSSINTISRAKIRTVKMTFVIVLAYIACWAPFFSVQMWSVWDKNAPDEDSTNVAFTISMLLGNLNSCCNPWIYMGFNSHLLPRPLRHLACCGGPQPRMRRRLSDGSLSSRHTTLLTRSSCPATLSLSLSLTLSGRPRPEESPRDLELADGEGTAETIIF
# Ki per entry

Study these solved cases before continuing.
compound	Ki
CCOc1ccccc1C1(OC(=O)N2CCN(c3ccccn3)CC2)C(=O)N(S(=O)(=O)c2ccc(OC)cc2OC)c2ccc(C#N)cc21 (stereo not drawn)	10 to 100 nM
CCOc1ccccc1C1(OC(=O)N2CCN(c3ccncc3)CC2)C(=O)N(S(=O)(=O)c2ccc(C)cc2OC)c2ccc(C#N)cc21 (stereo not drawn)	< 10 nM

Please turn your attention to the following entry.
Request: // returns reported Ki for input CCOc1ccccc1C1(NC(=O)N2CCN(c3ccncc3)CC2)C(=O)N(S(=O)(=O)c2ccccc2F)c2ccc(C#N)cc21 (stereo not drawn)
Result: < 10 nM

* * *

biological target: human V1b receptors (Homo sapiens, UniProt P47901); construct: expressed in transfected cells; assay: Vasopressin V1b receptor binding assay; settings: Table 1; human vasopressin V1b receptor affinity; read-out: V1b Ki
# Ki per entry

compound	test-value
CCOc1ccccc1C1(NC(=O)N2CCN(c3ccc(C#N)cn3)CC2)C(=O)N(S(=O)(=O)c2ccc([N+](=O)[O-])cc2)c2ccc(C#N)cc21 (stereo not shown)	10 to 100 nM
CCOc1ccccc1C1(NC(=O)N2CCN(c3ccncc3)CC2)C(=O)N(S(=O)(=O)c2ccc(OC)cc2OC)c2ccc(C#N)cc21 (stereo not shown)	< 10 nM
CCOc1ccccc1C1(NC(=O)N2CCN(c3ccc(C#N)cn3)CC2)C(=O)N(S(=O)(=O)c2ccc(Cl)cc2)c2ccc(C#N)cc21 (stereo not shown)	10 to 100 nM

Please turn your attention to the following entry.
Request: // returns reported Ki for input CCOc1ccccc1C1(NC(=O)N2CCN(c3ccncc3)CC2)C(=O)N(S(=O)(=O)c2ccccc2OC)c2ccc(C#N)cc21 (stereo not shown)
Result: < 10 nM

* * *

molecular target: human V1b receptors (Homo sapiens, UniProt P47901); construct: expressed in transfected cells; experiment: Vasopressin V1b receptor binding assay; conditions: Table 1; human vasopressin V1b receptor affinity; read-out: V1b Ki
measurement-label: Ki

Study these solved cases before continuing.
compound	measured-target	test-value
CCOc1ccccc1C1(NC(=O)N2CCN(c3ccc(C#N)cn3)CC2)C(=O)N(S(=O)(=O)c2ccc(C#N)cc2)c2ccc(C#N)cc21 (stereo not drawn) [Example 47]	human V1b receptors (Homo sapiens, UniProt P47901)	10 to 100 nM
CCOc1ccccc1C1(NC(=O)N2CCN(c3ccc(C#N)cn3)CC2)C(=O)N(S(=O)(=O)c2ccc(C#N)cc2)c2ccc(C#N)cc21 (stereo not drawn) [Example 50]	human V1b receptors (Homo sapiens, UniProt P47901)	10 to 100 nM
CCOc1ccccc1C1(NC(=O)N2CCN(c3ccncc3)CC2)C(=O)N(S(=O)(=O)c2ccc([N+](=O)[O-])cc2)c2ccc(C#N)cc21 (stereo not drawn)	human V1b receptors (Homo sapiens, UniProt P47901)	< 10 nM
CCOc1ccccc1C1(OC(=O)N2CCN(c3ccncc3)CC2)C(=O)N(S(=O)(=O)c2ccccc2OC)c2ccc(C#N)cc21 (stereo not drawn)	human V1b receptors (Homo sapiens, UniProt P47901)	10 to 100 nM
CCOc1ccccc1C1(OC(=O)N2CCN(c3ccncc3)CC2)C(=O)N(S(=O)(=O)c2ccccc2)c2ccc(C#N)cc21 (stereo not drawn)	human V1b receptors (Homo sapiens, UniProt P47901)	10 to 100 nM

Please turn your attention to the following entry.
Request: // returns reported Ki for input CCOc1ccccc1C1(OC(=O)N2CCN(c3ccncc3)CC2)C(=O)N(S(=O)(=O)c2ccc(OC)cc2OC)c2ccc(C#N)cc21 (stereo not drawn)
Result: < 10 nM
